System: PCSK9 (Homo sapiens, UniProt Q8NBP7, G670E/V474I)
Sequence (Q8NBP7 with tags, fused parts or gaps V474I/G670E): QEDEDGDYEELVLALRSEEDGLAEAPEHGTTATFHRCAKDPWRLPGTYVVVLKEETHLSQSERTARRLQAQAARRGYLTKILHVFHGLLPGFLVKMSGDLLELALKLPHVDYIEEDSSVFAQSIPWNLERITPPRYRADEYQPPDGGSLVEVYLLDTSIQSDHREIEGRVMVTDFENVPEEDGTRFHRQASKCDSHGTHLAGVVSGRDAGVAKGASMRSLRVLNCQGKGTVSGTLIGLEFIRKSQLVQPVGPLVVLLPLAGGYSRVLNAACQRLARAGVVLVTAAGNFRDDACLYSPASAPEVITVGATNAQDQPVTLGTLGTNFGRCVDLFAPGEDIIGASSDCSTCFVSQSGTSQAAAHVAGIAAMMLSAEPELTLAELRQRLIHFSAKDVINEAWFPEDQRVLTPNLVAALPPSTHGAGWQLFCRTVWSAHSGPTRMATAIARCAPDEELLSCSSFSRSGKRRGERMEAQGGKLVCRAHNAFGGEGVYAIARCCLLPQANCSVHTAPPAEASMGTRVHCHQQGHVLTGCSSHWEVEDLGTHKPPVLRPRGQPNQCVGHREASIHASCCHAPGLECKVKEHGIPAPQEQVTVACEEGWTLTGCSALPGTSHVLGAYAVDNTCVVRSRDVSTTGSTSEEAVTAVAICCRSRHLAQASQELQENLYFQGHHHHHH
Test Description: Assay 3 - PCSK9 LDL-C uptake assay in HepG2 cells
Particulars: 125 nM PCSK9, pHrodo Red-LDL, read-out: Assay 3 LDL uptake potency
Reported Property: pEC50
Value format note: pEC50 is -log10 of concentration (mol/L); just state the number.

> print(dat)
                                   compound  reported.property  test.result
1  O=c1c(Cl)cccn1-c1ccc(N[C@H]2CC[C@H](Nc3cnc(OC(F)F)cn3)C2)nc1 [Example 85]              pEC50         6.70
2  Cn1c(=O)n(-c2ccc(N[C@H]3CC[C@H](Nc4cnc(OC(F)F)cn4)C3)nc2)c2ccccc21 [Example 82]              pEC50         6.70
3  COc1cccn(-c2ccc(N[C@H]3CC[C@H](Nc4cnc(C)cn4)C3)nc2)c1=O (relative stereo) [Example 172]              pEC50         7.00
4  Cc1ncc(N[C@H]2CC[C@H](Nc3ccc(-n4cc(C(=O)O)ccc4=O)cn3)C2)nc1C [Example 14]              pEC50         6.70

Shifting focus to the compound that follows.
Q. Looking for the measured pEC50 of COc1cccn(-c2ccc(N[C@H]3CC[C@H](Nc4cnc(C)cn4)C3)nc2)c1=O (racemic) [Example 170] , can you help?
A. 6.70

###

System: UniProt:Q12809
Test Description: Assay 5 - hERG assay (SyncroPatch 384PE patch clamp, CHO cells)
Particulars: geometric mean; CHO cells over-expressing hERG; read-out: Assay 5 (hERG Hu CHO IF EPh CR-Syncro) GMean IC50
Reported Property: IC50

As a guide, the following entries are already answered.
> print(dat)
                                   compound  test.result
1  Cc1cnc(N[C@H]2CC[C@H](Nc3ccc(-n4cccc(-c5c[nH]nn5)c4=O)cn3)C2)cn1 [Example 205]    > 40.1 µM
2  Cc1cnc(N[C@H]2CC[C@H](Nc3ccc(-n4cccc(C)c4=O)cn3)C2)cn1 [Example 44]      > 40 µM
3  Cc1cnc(N[C@H]2CC[C@H](Nc3ccc(-n4cccc(-c5cnn(C)c5)c4=O)cn3)C2)cn1 [Example 203]    > 40.1 µM
4  COc1cccn(-c2ccc(N[C@H]3CC[C@H](Nc4cnc(C)cn4)C3)nc2)c1=O (single isomer, unassigned) [Example 171]    > 40.1 µM

Q. What does the data say about its IC50? Entry: Cc1cnc(N[C@H]2CC[C@H](Nc3ccc(-n4cc(-c5cn[nH]c5)ccc4=O)cn3)C2)cn1 [Example 207]
A. > 40.1 µM

###

System: potassium ion channel hERG (human Ether-á-go-go-Related Gene) (Homo sapiens, UniProt Q12809)
Sequence (Q12809 whole entry): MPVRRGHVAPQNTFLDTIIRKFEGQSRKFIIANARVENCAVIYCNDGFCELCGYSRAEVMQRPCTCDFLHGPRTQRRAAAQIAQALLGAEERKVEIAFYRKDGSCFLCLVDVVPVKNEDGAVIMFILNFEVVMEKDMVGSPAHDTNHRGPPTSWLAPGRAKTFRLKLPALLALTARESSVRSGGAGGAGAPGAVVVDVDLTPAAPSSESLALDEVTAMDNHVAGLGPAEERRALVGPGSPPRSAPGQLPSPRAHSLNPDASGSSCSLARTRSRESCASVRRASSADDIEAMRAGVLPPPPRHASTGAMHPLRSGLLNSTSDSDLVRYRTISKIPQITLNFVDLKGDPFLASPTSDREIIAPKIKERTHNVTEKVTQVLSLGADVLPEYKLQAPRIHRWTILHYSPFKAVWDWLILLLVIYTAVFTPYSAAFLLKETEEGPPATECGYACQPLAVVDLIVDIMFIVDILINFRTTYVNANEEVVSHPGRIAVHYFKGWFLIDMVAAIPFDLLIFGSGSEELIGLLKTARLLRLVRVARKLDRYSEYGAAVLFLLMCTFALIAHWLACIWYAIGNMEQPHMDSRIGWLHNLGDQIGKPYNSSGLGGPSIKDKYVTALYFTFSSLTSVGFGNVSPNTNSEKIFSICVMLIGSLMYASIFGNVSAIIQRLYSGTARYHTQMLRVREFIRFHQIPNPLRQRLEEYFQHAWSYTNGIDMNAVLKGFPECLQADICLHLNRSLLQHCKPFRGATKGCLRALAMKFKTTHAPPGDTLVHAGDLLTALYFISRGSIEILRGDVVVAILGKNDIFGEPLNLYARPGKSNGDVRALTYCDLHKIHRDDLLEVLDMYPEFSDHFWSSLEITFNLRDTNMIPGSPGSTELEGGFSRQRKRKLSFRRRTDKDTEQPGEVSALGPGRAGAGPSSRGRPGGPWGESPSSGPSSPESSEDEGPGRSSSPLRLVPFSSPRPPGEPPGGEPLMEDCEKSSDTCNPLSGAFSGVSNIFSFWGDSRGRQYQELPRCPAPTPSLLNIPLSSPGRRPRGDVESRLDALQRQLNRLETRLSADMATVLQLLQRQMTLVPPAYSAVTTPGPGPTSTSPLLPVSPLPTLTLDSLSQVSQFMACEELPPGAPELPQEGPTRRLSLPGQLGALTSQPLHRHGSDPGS
Test Description: Assay 5 - hERG assay (SyncroPatch 384PE patch clamp, CHO cells)
Particulars: geometric mean; CHO cells over-expressing hERG; read-out: Assay 5 (hERG Hu CHO IF EPh CR-Syncro) GMean IC50
Reported Property: IC50

These solved cases illustrate the format of a correct answer.
> print(dat)
                                   molecule  reported.property  test.result
1  O=c1[nH]ccnc1N[C@H]1CC[C@H](Nc2ccc(-n3ccccc3=O)cn2)C1 [Example 252]               IC50    > 40.1 µM
2  Cc1ncc(N[C@H]2CC[C@H](Nc3ccc(-n4ccccc4=O)cn3)C2)nc1C [Example 2]               IC50      > 40 µM
3  O=C(O)c1ccc(=O)n(-c2ccc(N[C@H]3CC[C@H](Nc4cnc(Cl)cn4)C3)nc2)c1 [Example 33]               IC50      > 40 µM

Now examine the next entry.
Q. Form field: reported IC50 of Cc1cnc(N[C@H]2CC[C@H](Nc3ccc(-n4nc(Cl)ccc4=O)cn3)C2)cn1 [Example 233]
A. > 40.1 µM

###

System: PCSK9 (Homo sapiens, UniProt Q8NBP7, G670E/V474I)
Test Description: biochemical
# maps each entry to its pIC50
A value of pIC50 is the negative decimal logarithm of a concentration given in moles per litre.

Example entries and their recorded answers appear below.
> print(dat)
                    structure.smiles.string  test.result
1  Cc1cnc(N[C@H]2CC[C@H](Nc3ccc(-n4nccc(OC(F)F)c4=O)cn3)C2)cn1         8.00
2  Cc1ncc(N[C@H]2CC[C@H](Nc3ccc(-n4cccc(C#N)c4=O)cn3)C2)nc1C         8.06

Continue with the compound presented below.
Q. Param readout = pIC50; param system = PCSK9 (Homo sapiens, UniProt Q8NBP7, G670E/V474I); param query = COc1cccn(-c2ccc(N[C@H]3CC[C@H](Nc4cnc(OC(F)F)cn4)C3)nc2)c1=O ; response: value
A. 8.11

###

System: PCSK9 (Homo sapiens, UniProt Q8NBP7, G670E/V474I)
Test Description: biochemical
pIC50: −log10 of the molar value.
# class assignment by measured pIC50: bucket 1 = under 7, bucket 2 = from 7 up to 8, bucket 3 = 8 and over

Use the examples below as a reference point.
> print(dat)
                                   molecule  category
1  C[C@@]12C[C@]1(C)C(=O)N(c1ccc(N[C@H]3CC[C@H](Nc4cnc(OC(F)F)cn4)C3)nc1)C2=O [Example 80]  bucket 1
2  CN1CCN(c2ccc(=O)n(-c3ccc(N[C@H]4CC[C@H](Nc5cnc(OC(F)F)cn5)C4)nc3)c2)CC1 [Example 81]  bucket 1
3  CN1C(=O)CN(c2ccc(N[C@H]3CC[C@H](Nc4cnc(OC(F)F)cn4)C3)nc2)C1=O [Example 92]  bucket 2
4  Cc1cnc(N[C@H]2CC[C@H](Nc3ccc(-n4cc(CS(C)(=O)=O)ccc4=O)cn3)C2)cn1 [Example 259]  bucket 2
5  Cn1c(=O)n(-c2ccc(N[C@H]3CC[C@H](Nc4cnc(Cl)cn4)C3)nc2)c2ncccc21 [Example 98]  bucket 3

Q. Which band does Cc1cncc(N[C@H]2CC[C@H](Nc3ccc(-n4ccccc4=O)cn3)C2)n1 [Example 141] fall in?
A. bucket 1

Q. Which category fits this record: CN1C(=O)CN(c2ccc(N[C@H]3CC[C@H](Nc4cnc(Cl)cn4)C3)nc2)C1=O [Example 26]
A. bucket 2

Q. Sort N#Cc1ccc(=O)n(-c2ccc(N[C@H]3CC[C@H](Nc4cnc(C5CC5)cn4)C3)nc2)c1 [Example 110] into one of the categories.
A. bucket 2

Q. # bin label for O=c1ccc2cccnc2n1-c1ccc(N[C@H]2CC[C@H](Nc3cnc(Cl)cn3)C2)nc1 [Example 34]
A. bucket 3

Q. Consider O=C(O)[C@@H]1CCC(=O)N1c1ccc(N[C@H]2CC[C@H](Nc3cnc(OC(F)F)cn3)C2)nc1 [Example 79] . To which pIC50 class does it belong?
A. bucket 1

Q. Hi there! Could you help me figure out the category for O=c1ccccn1-c1ccc(N[C@H]2CC[C@H](Nc3cnc4cccnc4n3)C2)nc1 [Example 143] please?
A. bucket 1

Q. Hello team, could you let me know which band the following molecule falls into: N#Cc1cccn(-c2ccc(N[C@H]3CC[C@H](Nc4cnc(Cl)cn4)C3)nc2)c1=O [Example 101]
A. bucket 3

Q. Using the reported pIC50, which band applies to O=c1ccc(-c2nnn[nH]2)cn1-c1ccc(N[C@H]2CC[C@H](Nc3cnc(Cl)cn3)C2)nc1 [Example 179] ?
A. bucket 3

###

System: potassium ion channel hERG (human Ether-á-go-go-Related Gene) (Homo sapiens)
Test Description: Assay 5 - hERG assay (SyncroPatch 384PE patch clamp, CHO cells)
Particulars: geometric mean; CHO cells over-expressing hERG; read-out: Assay 5 (hERG Hu CHO IF EPh CR-Syncro) GMean IC50
Reported Property: IC50

Some solved cases for reference:
> print(dat)
                    structure.smiles.string  test.result
1  Cc1cnc(N[C@H]2CC[C@H](Nc3ccc(-n4cc(-c5nnn[nH]5)ccc4=O)cn3)C2)cn1    > 40.1 µM
2  CN1CCN(c2ccc(=O)n(-c3ccc(N[C@H]4CC[C@H](Nc5cnc(OC(F)F)cn5)C4)nc3)c2)CC1      > 40 µM

Here is another compound to look at.
Q. Consider the compound Cc1ncc(N[C@H]2CC[C@H](Nc3ccc(N4CC(=O)N(C)C4=O)cn3)C2)nc1C and give its measured IC50.
A. > 40 µM

###

Reported pIC50 is given for each of the following compounds.
System: potassium ion channel hERG (human Ether-á-go-go-Related Gene) (Homo sapiens, UniProt Q12809)
Construct: expressed in transfected cells; host or cells: Chinese hamster ovary K1 (CHO)
Test Description: Assay 5 - hERG assay (SyncroPatch 384PE patch clamp, CHO cells)
Assay type: cell-based
Particulars: geometric mean; CHO cells over-expressing hERG; read-out: Assay 5 (hERG Hu CHO IF EPh CR-Syncro) GMean IC50
pIC50: −log10 of the molar value.

Below: 2 compounds and their reported pIC50.
> print(dat)
                    structure.smiles.string  test.result
1  CSc1cnc(N[C@H]2CC[C@H](Nc3ccc(-n4ccccc4=O)cn3)C2)cn1       < 4.40
2  O=c1ccccn1-c1ccc(N[C@H]2CC[C@H](Nc3cnc4cccnc4n3)C2)nc1       < 4.40

Q. Give the measured pIC50 of N#Cc1cncc(N[C@H]2CC[C@H](Nc3ccc(-n4ccccc4=O)cn3)C2)n1 .
A. < 4.45

Q. Requested read-out: pIC50. Entry: COc1cccc2ncc(N[C@H]3CC[C@H](Nc4ccc(-n5ccccc5=O)cn4)C3)nc12
A. < 4.46

Data credit: patent US20240217951A1
